# System: T1, formyl-peptide receptor type 2 (FPR2), on HEK293 cells (human, UniProt P25090 1-351)
# T1 chain: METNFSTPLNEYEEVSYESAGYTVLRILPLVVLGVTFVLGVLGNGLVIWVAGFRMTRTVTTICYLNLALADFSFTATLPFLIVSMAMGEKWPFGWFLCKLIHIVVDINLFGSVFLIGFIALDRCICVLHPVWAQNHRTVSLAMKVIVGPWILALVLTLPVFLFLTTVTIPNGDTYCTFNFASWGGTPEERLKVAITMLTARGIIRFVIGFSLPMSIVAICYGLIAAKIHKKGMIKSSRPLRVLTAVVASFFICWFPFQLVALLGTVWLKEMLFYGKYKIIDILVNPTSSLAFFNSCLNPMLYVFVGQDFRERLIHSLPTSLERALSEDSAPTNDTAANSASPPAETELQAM
# Assay: FACS; competition with K(5/6-FAM)-WKYMVm; printed as Log IC50 -5.33
Square brackets hold non-standard residues; d marks the D form. Ends that are not written are not given here.
Parameter Measured: IC50
Provide the measurement as a number trailed by its unit.

Query: I have this binder here, WK[all‑cis pentafluorocyclohexylalanine]MV[dM]-NH2 [W-peptide analog 23d (all-cis pentafluorocyclohexylalanine in place of Tyr3 of WKYMVm)] , and I need its recorded IC50.
Response: 4.68 µM

Every entry's value here was drawn from paper PMC12631002.
